tested on: BT474 cells; experiment: Cell proliferation assay Method B, BT474; format: cell-based; settings: Homo sapiens, BT-474; Breast; Method B; 72 hours; read-out: antiproliferative activity IC50, BT474
IC50 overview

// below: answered compounds
> print(dat)
                                   compound  property.measured     assay.value
1  CN(Cc1cc2nc(-c3ccc(N)cc3)nc(N3CCOCC3)c2s1)c1ncc(C(=O)NO)cn1               IC50         < 10 nM
2  CNc1ccc(-c2nc(N3CCOCC3)c3sc(CN(C)c4ncc(C(=O)NO)cn4)cc3n2)cn1               IC50         < 10 nM
3  COc1ccc(-c2nc(N3CCOCC3)c3sc(CN(C)c4ncc(C(=O)NO)cn4)cc3n2)cn1               IC50         < 10 nM
4  COc1ncc(-c2nc(N3CCOCC3)c3sc(CN(C)c4ncc(C(=O)NO)cn4)cc3n2)cn1               IC50         < 10 nM
5  CNc1ncc(-c2nc(N3CCOCC3)c3sc(CN(C)c4ncc(C(=O)NO)cn4)cc3n2)cn1               IC50    10 to 100 nM
6  CS(=O)(=O)N1CCN(Cc2cc3nc(-c4cccc5[nH]ncc45)nc(N4CCOCC4)c3s2)CC1 [GDC-0941, reference compound]               IC50  100 to 1000 nM
7  CC(c1cc2nc(-c3cccc4[nH]ncc34)nc(N3CCOCC3)c2s1)N(C)c1ncc(C(=O)NO)cn1 (stereo not drawn)               IC50         < 10 nM
8  CN(Cc1cc2nc(-c3cccc(CO)c3)nc(N3CCOCC3)c2s1)c1ncc(C(=O)NO)cn1               IC50         < 10 nM

State the recorded IC50 for this entry: Cc1ncc(-c2nc(N3CCOCC3)c3sc(CN(C)c4ncc(C(=O)NO)cn4)cc3n2)cn1
10 to 100 nM

====

system: Daudi cells; test: Cell proliferation assay Method B, Daudi; format: cell-based; conditions: Homo sapiens, NHL, 72 hours, read-out: antiproliferative activity IC50, Daudi
property_measured: IC50

// below: answered molecules
> print(dat)
                                   molecule   assay.value
1  COc1ccc(-c2nc(N3CCOCC3)c3sc(CN(C)c4ncc(C(=O)NO)cn4)cc3n2)cn1  10 to 100 nM
2  CNc1ccc(-c2nc(N3CCOCC3)c3sc(CN(C)c4ncc(C(=O)NO)cn4)cc3n2)cn1       < 10 nM
3  CS(=O)(=O)N1CCN(Cc2cc3nc(-c4cccc5[nH]ncc45)nc(N4CCOCC4)c3s2)CC1 [GDC-0941, reference compound]    > 10000 nM

Field: next molecule
Given the entry CN(Cc1cc2nc(-c3ccc(N)cc3)nc(N3CCOCC3)c2s1)c1ncc(C(=O)NO)cn1 , what IC50 was observed with Daudi cells?
< 10 nM

====

IC50 overview
test system: P388 D1 cells; test: Cell proliferation assay Method B, P388 D1; format: cell-based; conditions: P388D1, Mouse Lymphoma, 72 hours, read-out: antiproliferative activity IC50, P388 D1

// below: answered compounds
> print(dat)
                                   compound  target.system   assay.value
1  COc1ccc(-c2nc(N3CCOCC3)c3sc(CN(C)c4ncc(C(=O)NO)cn4)cc3n2)cn1  P388 D1 cells  10 to 100 nM
2  CNc1ccc(-c2nc(N3CCOCC3)c3sc(CN(C)c4ncc(C(=O)NO)cn4)cc3n2)cn1  P388 D1 cells       < 10 nM
3  CN(Cc1cc2nc(-c3ccc(N)cc3)nc(N3CCOCC3)c2s1)c1ncc(C(=O)NO)cn1  P388 D1 cells       < 10 nM

Field: next compound
State the recorded IC50 for this entry: CS(=O)(=O)N1CCN(Cc2cc3nc(-c4cccc5[nH]ncc45)nc(N4CCOCC4)c3s2)CC1 [GDC-0941, reference compound]
1000 to 10000 nM
